# key: entry, value: pEC50
system: HIV-1 (IIIB) in MT-4 cells; test: MT-4 HIV Assay (inhibition of HIV-1 replication, Cell Titer Glo readout); format: cell-based; conditions: Human immunodeficiency virus 1, MT4, 120 h, 5 days incubation
pEC50 here: minus log base 10 of the concentration, concentration in moles per litre.

Solved cases (2 shown):
>  <molecularString>
CC(C)(C[C@]1(c2ccc(-c3ccn(C(F)F)n3)cc2)NC(=N)N([C@H](COC(=O)NC2(C(F)F)CC2)c2ccc(Cl)c(-c3ncnn3C(F)F)c2)C1=O)C(F)(F)F

>  <pEC50>
8.08

$$$$
>  <molecularString>
CC(C)(C[C@]1(c2ccc(-c3cccc(S(C)(=O)=O)c3)cc2)NC(=N)N([C@H](COC(=O)NC2(C(F)F)CC2)c2ccc(Cl)c(-c3ncnn3C(F)F)c2)C1=O)C(F)(F)F

>  <pEC50>
7.56

$$$$

// below: pEC50 requested for another compound
q: What does the record list as pEC50 for "CC(C)(C[C@]1(c2ccc(-c3ccc(F)cc3)cc2)NC(=N)N([C@H](COC(=O)NC2(C(F)F)CC2)c2ccc(Cl)c(-c3ncnn3C(F)F)c2)C1=O)C(F)(F)F" ?
a: 7.20

###

# key: entry, value: pEC50
system: HIV-1 (IIIB) in MT-4 cells; test: MT-4 HIV Assay (inhibition of HIV-1 replication, Cell Titer Glo readout); type: cell-based; details: Human immunodeficiency virus 1, MT4, 120 h, 5 days incubation
pEC50 here: minus log base 10 of the concentration, concentration in moles per litre.

Solved cases (2 shown):
>  <molecularString>
CC(C)(C[C@]1(c2ccc(-c3ccc(S(C)(=O)=O)cc3F)cc2)NC(=N)N([C@H](COC(=O)NC2(C(F)F)CC2)c2ccc(Cl)c(-c3ncnn3C(F)F)c2)C1=O)C(F)(F)F

>  <assayValue>
7.95

$$$$
>  <molecularString>
CC(C)(C[C@]1(c2ccc(-c3cn(C(F)F)cn3)cc2)NC(=N)N([C@H](COC(=O)NC2(C(F)F)CC2)c2ccc(Cl)c(-c3ncnn3C(F)F)c2)C1=O)C(F)(F)F

>  <assayValue>
7.58

$$$$

// below: pEC50 requested for another compound
q: What does the record list as pEC50 for "CC(C)(C[C@]1(c2ccc(-c3ccc(S(C)(=O)=O)cc3)cc2)NC(=N)N([C@H](COC(=O)NC2(C(F)F)CC2)c2ccc(Cl)c(-c3ncnn3C(F)F)c2)C1=O)C(F)(F)F" ?
a: 7.88

###

test system: HIV-1 (IIIB) in MT-4 cells; assay: MT-4 HIV Assay (inhibition of HIV-1 replication, Cell Titer Glo readout); type: cell-based; conditions: Human immunodeficiency virus 1, MT4, 120 h, 5 days incubation
# key: entry, value: pEC50
pEC50 here: minus log base 10 of the concentration, concentration in moles per litre.

Solved cases (2 shown):
>  <molecularString>
CC(C)(C[C@]1(c2ccc(-c3cnn(C(F)F)c3)cc2)NC(=N)N([C@H](COC(=O)NC2(C(F)F)CC2)c2ccc(Cl)c(-c3ncnn3C(F)F)c2)C1=O)C(F)(F)F

>  <pEC50>
8.11

$$$$
>  <molecularString>
CC(C)(C[C@]1(c2ccc(-c3cccc(F)c3)cc2)NC(=N)N([C@H](COC(=O)NC2(C(F)F)CC2)c2ccc(Cl)c(-c3ncnn3C(F)F)c2)C1=O)C(F)(F)F

>  <pEC50>
7.30

$$$$

// below: pEC50 requested for another compound
q: What does the record list as pEC50 for "CC(C)(C[C@]1(c2ccc(-c3ccc(S(C)(=O)=O)c(F)c3)cc2)NC(=N)N([C@H](COC(=O)NC2(C(F)F)CC2)c2ccc(Cl)c(-c3ncnn3C(F)F)c2)C1=O)C(F)(F)F" ?
a: 7.95
